binders and their reported EC50
# TARGET_OF_ASSAY: T1, mTIGIT (ELISA of Table 7) (mouse, UniProt P86176 29-145, limits assumed)
# T1 construct: also called mouse TIGIT
# T1 sequence (looked up): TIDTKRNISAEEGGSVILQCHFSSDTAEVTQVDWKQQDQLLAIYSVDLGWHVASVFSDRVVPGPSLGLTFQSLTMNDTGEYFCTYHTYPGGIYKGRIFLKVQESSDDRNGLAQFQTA
# TEST_DESCRIPTION: ELISA binding
Report the value in nM with no unit label.

Here is how some binders turned out for EC50.
BINDER | MEASURED_VALUE
1G3 mIgG2a-DLE (antibody, V domains shown, Mouse IgG2a isotype with DLE (S239D/A330L/I332E) mutations at the Fc region) VH: DIQLVQSGGGLVKPGGSLRLSCAASGYTFTNYWIGWVRQTPGKGLEWVGDIYPGSSFTNSNEKFKGRFTISADKSKNTAYLQMNSLRAEDTAVYYCARDMVGYWYFDVWGQGTLVTVSS VL: DIVLTQSPATLSASLGERATLSCSASSSVSYIHWYQQKPGQAPKLLIYTTSNLASGVPSRFSGSGSGTDFTLTISSLEAEDFATYYCHQWSRYPTFGGGTKLEIK | 3.6
2F1 mIgG2a-DLE (antibody, V domains shown, Mouse IgG2a isotype with DLE (S239D/A330L/I332E) mutations at the Fc region) VH: DIQLVQSGGGLVKPGGSLRLSCAASGYTFTNYWIGWVRQTPGKGLEWVGDIYPGSSFTNSNEKFKGRFTISADKSKNTAYLQMNSLRAEDTAVYYCARVIVGYWYFDVWGQGTLVTVSS VL: DIVLTQSPATLSASLGERATLSCSASSSVSYIHWYQQKPGQAPKLLIYTTSNLASGVPSRFSGSGSGTDFTLTISSLEAEDFATYYCHQWSRYPTFGGGTKLEIK | 1.1
hz7D4 mIgG2a (antibody, V domains shown) VH: EVQLVQSGGGLVKPGGSLRLSCAASGYTFTNYWIGWVRQTPGKGLEWVGDIYPGSSFTNSNEKFKGRFTISADKSKNTAYLQMNSLRAEDTAVYYCARLGRGYWYFDVWGQGTLVTVSS VL: DIVLTQSPATLSASLGERATLSCSASSSVSYIHWYQQKPGQAPKLLIYTTSNLASGVPSRFSGSGSGTDFTLTISSLEAEDFATYYCHQWSRYPTFGGGTKLEIK | 217

Exercise: Please report EC50 for the following binder: 3H2 mIgG2a-DLE (antibody, V domains shown, Mouse IgG2a isotype with DLE (S239D/A330L/I332E) mutations at the Fc region) VH: DIQLVQSGGGLVKPGGSLRLSCAASGYTFTNYWIGWVRQTPGKGLEWVGDIYPGSSFTNSNEKFKGRFTISADKSKNTAYLQMNSLRAEDTAVYYCARIRLGYWYFDVWGQGTLVTVSS VL: DIVLTQSPATLSASLGERATLSCSASSSVSYIHWYQQKPGQAPKLLIYTTSNLASGVPSRFSGSGSGTDFTLTISSLEAEDFATYYCHQWSRYPTFGGGTKLEIK
Solution: 0.7
